organism: Homo sapiens; assay: Compound was tested for inhibitory activity against collagen induced platelet aggregation; assay type: functional
measuredEndpoint: IC50 (µM)
# output: bare number, implied unit µM

Consider O=C(O)COc1cccc2c1[C@H]1C[C@@H](O)[C@H](C#C[C@@H](O)C3CCCCC3)[C@H]1C2 . Its measured IC50 is 2.5
